- System: Glutathione peroxidase 1 (Homo sapiens) (UniProt P07203)
- Sequence (P07203 whole entry, looked up): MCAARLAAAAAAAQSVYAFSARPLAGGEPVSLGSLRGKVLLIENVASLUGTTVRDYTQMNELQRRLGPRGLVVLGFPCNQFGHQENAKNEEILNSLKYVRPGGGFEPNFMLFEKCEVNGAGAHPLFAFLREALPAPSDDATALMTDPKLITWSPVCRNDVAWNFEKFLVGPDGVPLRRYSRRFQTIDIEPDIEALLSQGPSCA
- Test Name: Primary qHTS Assay for Inhibitors of Recombinant Selenoprotein Glutathione Peroxidase 1 (GPX1) (AID 1845191); note: nearly all actives have a fitted effect of over 65% in size
- Measurement Conditions: recombinant GPX1, GR-coupled NADPH fluorescence, 15 min; series mostly up to 27.7 µM
Records with an inconclusive call do not appear. Activity calls are given as the source filed them. Calls come from the whole dose curve; as a rule, active = well fitted inhibition curve with a large enough effect; inconclusive = small, poorly fitted or top-dose-only effect; inactive = flat fitted curve, though single readings scatter.
Write down one outcome, taken from active, inactive

Task: Kindly provide the recorded test outcome for the following compound: C/C(=C\CC[C@H](CO)[C@@H]1CC[C@]2(C)C3=C(CC[C@@]12C)[C@@]1(C)CCC(=O)C(C)(C)C1CC3)C(=O)O (stereo not given in full)
Result: inactive

Task: Kindly provide the recorded test outcome for the following compound: CC1=C2CC(O)(C(C)(C)O)C(O[C@@H]3O[C@H](CO)[C@@H](O)[C@H](O)[C@H]3O)CC(C)C2CC1=O (stereo not given in full)
Result: inactive

Task: Kindly provide the recorded test outcome for the following compound: CC(=O)O[C@@H]1C(=O)C(C)=C(CCC(C)CC(=O)O)[C@@]2(C)CCCC(C)(C)C12 (stereo not given in full)
Result: inactive

Task: Kindly provide the recorded test outcome for the following compound: CC1C2=CC(=O)OC2(O)CC2C1C(OC(=O)c1ccccc1)C(OC(=O)c1ccccc1)C1(O)C2(C)CCC(O)C1(C)C(=O)O (stereo not given)
Result: inactive

Task: Kindly provide the recorded test outcome for the following compound: Nc1ncnc2c1c(COc1cccc(Cl)c1)nn2C1CCOCC1
Result: inactive

Task: Kindly provide the recorded test outcome for the following compound: CC(=O)C1CCC(=O)N1Cc1ccccc1 (stereo not given)
Result: inactive

Task: Kindly provide the recorded test outcome for the following compound: CC1=CC(=O)CC(C)(C)[C@@]1(O)/C=C/C(C)O[C@@H]1O[C@H](CO)[C@@H](O)[C@H](O)[C@H]1O (stereo not given in full)
Result: inactive

Task: Kindly provide the recorded test outcome for the following compound: CCC(C)C(=O)OC[C@H]1O[C@H](O[C@H]2O[C@H](CO)[C@@H](O)[C@H](O)[C@H]2O)[C@H](O)[C@@H](O)[C@@H]1O (stereo not given in full)
Result: inactive

Task: Kindly provide the recorded test outcome for the following compound: NC1Nc2ccccc2C1(N)CC1NC(=O)C(Cc2ccccc2)NC(=O)C(Cc2ccccc2)NC1=O (stereo not given)
Result: inactive

Task: Kindly provide the recorded test outcome for the following compound: C=CCc1ccc(O[C@@H]2O[C@H](CO)[C@@H](O)[C@H](O)[C@H]2O)c(O[C@@H]2O[C@H](CO)[C@@H](O)[C@H](O)[C@H]2O)c1
Result: inactive

Task: Kindly provide the recorded test outcome for the following compound: C=C1CC23CC(=O)C4C(CO)(CO)CCCC4(C)C2CCC1C3 (stereo not given)
Result: inactive

Task: Kindly provide the recorded test outcome for the following compound: COC(=O)[C@H](c1ccccc1Cl)N1CCC2SC(=O)C=C2C1 (stereo not given in full)
Result: active

Task: Kindly provide the recorded test outcome for the following compound: COc1cc(/C=C/C(=O)O[C@@H]2C[C@](O)(C(=O)O)C[C@@H](O)[C@H]2O)ccc1O
Result: inactive

Task: Kindly provide the recorded test outcome for the following compound: CC(=O)OC1CC2(C)C(CCC(C)C23Cc2c(O)cc4c(c2O3)CNC4=O)C(C)(C)C1O (stereo not given)
Result: inactive

Task: Kindly provide the recorded test outcome for the following compound: COc1ccc([C@H]2OC[C@H]3[C@@H]2CO[C@@H]3c2ccc(O[C@@H]3O[C@H](CO)C(O)[C@H](O)[C@H]3O)c(OC)c2)cc1OC (stereo not given in full)
Result: inactive

Task: Kindly provide the recorded test outcome for the following compound: COC1OC(O)C2(CCC3(O2)C(C)CC2OC(=O)C4(C)CCCC3(C)C24)C1O (stereo not given)
Result: inactive

Task: Kindly provide the recorded test outcome for the following compound: C=CC1(C)CC=C2C(CCC3C(C)(C(=O)O)CCCC23C)C1 (stereo not given)
Result: inactive

Task: Kindly provide the recorded test outcome for the following compound: OC[C@H]1O[C@@H](Oc2cc(O)cc(-c3cc4ccc(O[C@@H]5O[C@H](CO)[C@@H](O)[C@H](O)[C@H]5O)cc4o3)c2)[C@H](O)[C@@H](O)[C@@H]1O
Result: inactive

Task: Kindly provide the recorded test outcome for the following compound: O=C(O)Cc1cn([C@@H]2OC[C@@H](O[C@@H]3O[C@H](CO)[C@@H](O)[C@H](O)[C@H]3O)[C@H](O)[C@H]2O[C@@H]2O[C@H](CO)[C@@H](O)[C@H](O)[C@H]2O)c2ccccc12
Result: inactive

Task: Kindly provide the recorded test outcome for the following compound: CSC(=O)OCC1=C[C@@H]2OC(=O)C3=CO[C@@H](O[C@@H]4O[C@H](CO)[C@@H](O)[C@H](O)[C@H]4O)[C@H]1[C@@H]32
Result: inactive

Task: Kindly provide the recorded test outcome for the following compound: O=C(/C=C/c1ccc(O)c(O)c1)OC[C@H]1O[C@@H](OC2CCCCC2O)[C@H](O)[C@@H](O)[C@@H]1O (stereo not given in full)
Result: inactive

Task: Kindly provide the recorded test outcome for the following compound: CCC(C)C(=O)O[C@H]1C[C@](C)(O)[C@]23OC(C)(C)[C@H](C[C@H](OC(=O)c4ccccc4)[C@]2(COC(C)=O)[C@H]1OC(=O)C(C)CC)[C@H]3OC(C)=O (stereo not given in full)
Result: inactive

Task: Kindly provide the recorded test outcome for the following compound: COc1cc(C(C)=O)ccc1O[C@@H]1O[C@H](CO)[C@@H](O)[C@H](O)[C@H]1O
Result: inactive

Task: Kindly provide the recorded test outcome for the following compound: CCOc1ccc(-c2nn3ncccc3c2-c2ccc(S(C)(=O)=O)cc2)cc1
Result: inactive

Task: Kindly provide the recorded test outcome for the following compound: O=C(Cn1c2ccccc2c2nc3n(c(=O)c21)CCS3)N1CCCC1
Result: inactive

Reference source: PubChem BioAssay (NCATS)
